IC50: recorded values
Molecular target: sterol 14-reductase (Rattus norvegicus, UniProt A0ACM8Q6X4)
Construct: microsome which was used as an enzyme source of sterol 14-reductase; from tissue; host or cells: liver microsomes of male Sprague-Dawley rats fed lovastatin and cholestyramine
Sequence (A0ACM8Q6X4 1-418): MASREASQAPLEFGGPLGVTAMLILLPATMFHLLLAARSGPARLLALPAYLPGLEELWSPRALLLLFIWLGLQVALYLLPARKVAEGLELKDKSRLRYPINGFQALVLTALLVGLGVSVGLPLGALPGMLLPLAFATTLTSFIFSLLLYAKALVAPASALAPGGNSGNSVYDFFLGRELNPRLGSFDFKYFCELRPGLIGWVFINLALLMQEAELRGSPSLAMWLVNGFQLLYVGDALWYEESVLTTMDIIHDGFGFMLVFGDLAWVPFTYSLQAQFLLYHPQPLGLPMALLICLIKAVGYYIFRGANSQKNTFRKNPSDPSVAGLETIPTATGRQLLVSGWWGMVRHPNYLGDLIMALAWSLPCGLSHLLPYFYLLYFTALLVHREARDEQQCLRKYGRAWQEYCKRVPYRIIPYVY
Assay: Inhibition of sterol 14-reductase in rat liver microsomes
Assay type: biochemical
Settings: read-out: Enzyme Activity (relative in vitro activity for sterol 14-reductase, IC50 class)
Assay metric: IC50

compound=CCc1c2[n+](cc3c(OCc4ccc(OCc5ccccc5)cc4)c(OC)ccc13)CCc1cc(OC)c(OC)cc1-2 assay_metric=IC50 assay_value="> 100 µM"
compound=CCCCCCCCCCCCOc1c(OC)ccc2c(CC)c3[n+](cc12)CCc1cc(OC)c(OC)cc1-3 assay_metric=IC50 assay_value="< 1 µM"
compound=CCc1c2[n+](cc3c(OCc4ccc(OC(F)(F)F)cc4)c(OC)ccc13)CCc1cc(OC)c(OC)cc1-2 assay_metric=IC50 assay_value="10 to 100 µM"
compound=CCc1c2[n+](cc3c(OCc4ccc(C)c(C)c4)c(OC)ccc13)CCc1cc(OC)c(OC)cc1-2 assay_metric=IC50 assay_value="> 100 µM"
compound=CCc1c2[n+](cc3c(OCc4cccc(C)c4)c(OC)ccc13)CCc1cc(OC)c(OC)cc1-2 assay_metric=IC50 assay_value="> 100 µM"
compound=CCc1c2[n+](cc3c(OCc4cccc(OC)c4)c(OC)ccc13)CCc1cc(OC)c(OC)cc1-2 assay_metric=IC50 assay_value="> 100 µM"
compound=CCc1c2[n+](cc3c(OCc4c(F)c(F)c(C(F)(F)F)c(F)c4F)c(OC)ccc13)CCc1cc3c(cc1-2)OCO3 assay_metric=IC50 assay_value="10 to 100 µM"
compound="CCc1c2[n+](cc3c(OCc4c(F)c(F)c(F)c(F)c4F)c(OC)ccc13)CCc1cc(OC)c(OC)cc1-2 [Compound No. 3]" assay_metric=IC50 assay_value="< 1 µM"
compound=CCc1c2[n+](cc3c(OCc4ccc(C)cc4)c(OC)ccc13)CCc1cc(OC)c(OC)cc1-2 assay_metric=IC50 assay_value="> 100 µM"
